Source listed as the supplement of paper PMC10307832.

Test system: NCI-H647
assay_details: relative viability (nuclei count vs DMSO), 5 days (fraction); higher = more cells survive
setup_conditions: first compound 0.001 µM
relative viability less than 0.4 is YES; relative viability greater than or equal to 0.4 is NO.

# TODO verify relative viability < 0.4 strictly for this compound: Cc1cn(-c2cc(NC(=O)c3ccc(C)c(Nc4nccc(-c5cccnc5)n4)c3)cc(C(F)(F)F)c2)cn1 [Nilotinib] + Nc1nc2[nH]cc(CCc3ccc(C(=O)N[C@@H](CCC(=O)O)C(=O)O)cc3)c2c(=O)[nH]1 [Pemetrexed] (partner 0.2 µM) YES

# TODO verify relative viability < 0.4 strictly for this compound: Cc1cn(-c2cc(NC(=O)c3ccc(C)c(Nc4nccc(-c5cccnc5)n4)c3)cc(C(F)(F)F)c2)cn1 [Nilotinib] + Cc1cc(Nc2cc(N3CCN(C)CC3)nc(Sc3ccc(NC(=O)C4CC4)cc3)n2)n[nH]1 [Tozasertib] (partner 0.1 µM) YES

# TODO verify relative viability < 0.4 strictly for this compound: Cc1cn(-c2cc(NC(=O)c3ccc(C)c(Nc4nccc(-c5cccnc5)n4)c3)cc(C(F)(F)F)c2)cn1 [Nilotinib] + Cc1nc(NC(=O)N2CCC[C@H]2C(N)=O)sc1-c1ccnc(C(C)(C)C(F)(F)F)c1 [Alpelisib] (partner 2 µM) NO

# TODO verify relative viability < 0.4 strictly for this compound: Cc1cn(-c2cc(NC(=O)c3ccc(C)c(Nc4nccc(-c5cccnc5)n4)c3)cc(C(F)(F)F)c2)cn1 [Nilotinib] + CC(=O)Nc1cccc(-n2c(=O)n(C3CC3)c(=O)c3c(Nc4ccc(I)cc4F)n(C)c(=O)c(C)c32)c1 [Trametinib] (partner 0.02 µM) YES

# TODO verify relative viability < 0.4 strictly for this compound: Cc1cn(-c2cc(NC(=O)c3ccc(C)c(Nc4nccc(-c5cccnc5)n4)c3)cc(C(F)(F)F)c2)cn1 [Nilotinib] + COc1cccc2cc(-c3nc([C@H]4CC[C@H](C(=O)O)CC4)n4ncnc(N)c34)[nH]c12 [OSI-027] (partner 0.5 µM) NO

# TODO verify relative viability < 0.4 strictly for this compound: Cc1cn(-c2cc(NC(=O)c3ccc(C)c(Nc4nccc(-c5cccnc5)n4)c3)cc(C(F)(F)F)c2)cn1 [Nilotinib] + N=C(N)NC(=N)NCCc1ccccc1 [Phenformin] (partner 250 µM) NO

###

System: SK-LU-1
assay_details: relative viability (nuclei count vs DMSO), 5 days (fraction); higher = more cells survive
setup_conditions: first compound 0.03162 µM
relative viability less than 0.6 is T; relative viability greater than or equal to 0.6 is F.

# TODO verify relative viability < 0.6 strictly for this compound: Cc1cn(-c2cc(NC(=O)c3ccc(C)c(Nc4nccc(-c5cccnc5)n4)c3)cc(C(F)(F)F)c2)cn1 [Nilotinib] + Cc1nc(Nc2ncc(C(=O)Nc3c(C)cccc3Cl)s2)cc(N2CCN(CCO)CC2)n1 [Dasatinib] (partner 0.075 µM) T

# TODO verify relative viability < 0.6 strictly for this compound: Cc1cn(-c2cc(NC(=O)c3ccc(C)c(Nc4nccc(-c5cccnc5)n4)c3)cc(C(F)(F)F)c2)cn1 [Nilotinib] + CC(=O)c1c(C)c2cnc(Nc3ccc(N4CCNCC4)cn3)nc2n(C2CCCC2)c1=O [Palbociclib] (partner 0.5 µM) T

# TODO verify relative viability < 0.6 strictly for this compound: Cc1cn(-c2cc(NC(=O)c3ccc(C)c(Nc4nccc(-c5cccnc5)n4)c3)cc(C(F)(F)F)c2)cn1 [Nilotinib] + O=C(CCCCCCC(=O)Nc1ccccc1)NO [Vorinostat] (partner 1 µM) F

# TODO verify relative viability < 0.6 strictly for this compound: Cc1cn(-c2cc(NC(=O)c3ccc(C)c(Nc4nccc(-c5cccnc5)n4)c3)cc(C(F)(F)F)c2)cn1 [Nilotinib] + COc1cc2c(Oc3ccc(NC(=O)C4(C(=O)Nc5ccc(F)cc5)CC4)cc3F)ccnc2cc1OCCCN1CCOCC1 [Foretinib] (partner 0.25 µM) F

# TODO verify relative viability < 0.6 strictly for this compound: Cc1cn(-c2cc(NC(=O)c3ccc(C)c(Nc4nccc(-c5cccnc5)n4)c3)cc(C(F)(F)F)c2)cn1 [Nilotinib] + CS(=O)(=O)CCNCc1ccc(-c2ccc3ncnc(Nc4ccc(OCc5cccc(F)c5)c(Cl)c4)c3c2)o1 [Lapatinib] (partner 2 µM) T

# TODO verify relative viability < 0.6 strictly for this compound: Cc1cn(-c2cc(NC(=O)c3ccc(C)c(Nc4nccc(-c5cccnc5)n4)c3)cc(C(F)(F)F)c2)cn1 [Nilotinib] + CC(C)C[C@H](NC(=O)[C@H](Cc1ccccc1)NC(=O)c1cnccn1)B(O)O [Bortezomib] (partner 0.002 µM) F
